# targetDesc: T1, cyno TREM-1 on cells (cynomolgus monkey, UniProt A0A2K5VHG8 21-233)
# T1 sequence: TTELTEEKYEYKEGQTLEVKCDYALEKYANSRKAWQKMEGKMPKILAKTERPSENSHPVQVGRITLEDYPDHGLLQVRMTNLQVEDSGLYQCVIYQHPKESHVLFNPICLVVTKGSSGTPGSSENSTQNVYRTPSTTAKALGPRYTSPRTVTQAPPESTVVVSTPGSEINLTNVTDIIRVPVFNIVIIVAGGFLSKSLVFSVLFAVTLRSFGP
# testDetails: cell-based or functional assay
Recorded Ab IC50-Cyno PBMC (Trial 1), TNFα release after cyno PGLYRP1/PGN values for a group of binders are listed next.
Give the value; after it, write the unit.

See these solved cases before continuing.
Ask: Look up Ab IC50-Cyno PBMC (Trial 1), TNFα release after cyno PGLYRP1/PGN for this binder: 66B8 (antibody, V domains shown) VH: QVQLVQSGAEVKKPGASVKVSCKASGYTFTGYYMHWVRQAPGQGLEWMGWFKPNSGVTNYAQKFQGRVTMSRDTSISTAYMELSSLRSDDTAVYYCARAGYSTSWKDWFDPWGQGTLVTVSS VL: DIQMTQFPSSVSASVGDRVTITCRASQGISRWLAWYQQKQGKAPKLLIYMVSSLQSGVPSRFSGSGSGTDFTLTISSLQPEDFATYYCQQSHNFPITFGQGTRLDIKR
Reply: 0.114 nM

Ask: Next record, please: 61B12 (antibody, V domains shown) VH: QVQLVQSGAEVTKPGASVKVSCKASGYTFTRYDINWVRQATGQGLEWMGWMNPNSGNSGSVQKFRGRVTMTRNTSITTVYMELSSLRSDDTAVYYCARGGISSSWHWAFDIWGQGTMVTVSS VL: DIQMTQSPSSLSASVGDRVTITCQASQDINNHLNWYQQKPGKAPKLLIYGAYTLETGVPSRFSGSGSGTDFTFTISSLQPEDIATYYCQQYDKLPLTFGGGTKVEIKR
Reply: 0.0469 nM

# input for lookup
Ask: Which Ab IC50-Cyno PBMC (Trial 1), TNFα release after cyno PGLYRP1/PGN is reported for this binder? 46H7 (antibody, V domains shown) VH: EVQLLESGGGMVQPGGSLRLSCAVSGFTFSRYAMSWVRQAPGKGLEWVSEMRGSSGSTYYADSVKGRFTISRDNSKNTLYLQMNSLRVEDTAIYYCAKEFSSNSLFDYWGQGTLVTVSS VL: EIVMTQSPATLSVSPGERATLSCRASQSVNSNLAWYQQKPGRAPRLLIYGASTRATGIPARFSGSGSGTEFTLTISSLQSEDFAVYYCQQFYNWPPWTFGQGTKVEIKR
Reply: 0.0951 nM

All figures here come from patent US20240279332A1.
